Where do the numbers come from? From PubChem BioAssay (NCI).

Test system: PC-3 prostate
measurement-description: NCI tumour cell line growth inhibition, 48 h
Catalogue of TGI values

>>> recorded_value("O=C(O)c1cnc(-n2[nH]c3c(c2=O)CCCC3)[nH]c1=O")
"> 100 µM"
>>> recorded_value("COc1ccccc1NC(=O)CC(=O)N1N=C(N2c3ccccc3Sc3ccccc32)CC1c1ccccc1 (stereo not drawn)")
"> 100 µM"

Lab note: next molecule to report on.
State the recorded TGI for this entry: `CCOC(=O)c1nc2ccc(C(F)(F)F)cc2nc1Nc1ccc(Cl)c(Cl)c1`
> 100 µM

* * *

Tested on: SK-OV-3 ovarian
measurement-description: NCI tumour cell line growth inhibition, 48 h
Catalogue of TGI values

Worked cases, answers included:
>>> recorded_value("O=[N+]([O-])C(/C=N/Nc1ccccc1)/C=N/Nc1ccccc1")
"> 100 µM"
>>> recorded_value("O=C1C=CC=C/C1=C1/SC(c2ccccc2)=C(O)N1c1ccccc1")
"> 100 µM"
>>> recorded_value("O=C(/C=C(\\S/C=C(/c1ccccc1)N1CCn2c(C(=O)c3ccccc3)c(C(=O)c3ccccc3)c(C(=O)c3ccccc3)c21)C(=O)c1ccccc1)c1ccccc1")
"> 10 µM"
>>> recorded_value("O=C(/C=C/c1ccccc1F)c1ccc(Cl)c(Cl)c1")
"> 100 µM"

Lab note: next molecule to report on.
State the recorded TGI for this entry: CC(=O)NC(C)(C)C1CCC(C)=C(c2ccccc2)C1 (stereo not given)
> 100 µM
